compounds and their reported MEAN CORPUSCULAR VOLUME
# Species on record: Rattus norvegicus
# ASSAY EXPLANATION: DrugMatrix - Regimen: Daily Repeat
# Format: toxicity, organism-based, Sprague-Dawley
# Set-up: regimen Daily Repeat, gender Male, age 6-8 weeks
# REPORTED CONDITIONS: in vivo, po, 0 mg/kg, 72 h, tissue Blood, route oral GAVAGE, dose level Control, time 3 day, vehicle 100 % WATER
Hi! Could you send only the number? It should be in fL, unit omitted.

Field: example entries. Status: answers known.
1) Nc1c2c(nc3ccccc13)CCCC2; 60.52
2) c1ccc([C@H]2CN3CCSC3=N2)cc1; 63.07
3) CNNCc1ccc(C(=O)NC(C)C)cc1; 61.8

Shift focus to the following entry.
Which MEAN CORPUSCULAR VOLUME value is on record for C=CCC1(C(C)CCC)C(=O)NC(=O)NC1=O (centres undefined) ?
62.53

----------
# Species on record: Rattus norvegicus
# ASSAY EXPLANATION: DrugMatrix - Regimen: Daily Repeat
# Assay type: toxicity, organism-based, Sprague-Dawley
# Set-up: regimen Daily Repeat, gender Male, age 6-8 weeks
# REPORTED CONDITIONS: in vivo, po, 0 mg/kg, 120 h, tissue Blood, route oral GAVAGE, dose level Control, time 5 day, vehicle 100 % WATER
compounds and their reported HEMATOCRIT
Hi! Could you send only the number? It should be in %, unit omitted.

Field: example entries. Status: answers known.
1) NCCCCCC(=O)O; 36.53
2) C[C@H](CS)C(=O)N1CCC[C@H]1C(=O)O; 35.65
3) C=CCC1(C(C)CCC)C(=O)NC(=O)NC1=O (stereo not given); 33.53
4) CN(C)CCCN1c2ccccc2Sc2ccc(Cl)cc21; 34.17
5) C[C@](N)(Cc1ccc(O)c(O)c1)C(=O)O; 36.72

Which HEMATOCRIT value is on record for CC(O)CO (stereo not given) ?
36.53

And the next one, Nc1c2c(nc3ccccc13)CCCC2 ?
36.48

And the next one, Cc1onc(-c2ccccc2Cl)c1C(=O)N[C@@H]1C(=O)N2[C@@H]1SC(C)(C)[C@@H]2C(=O)O ?
36.53

----------
compounds and their reported POTASSIUM
# Species: Rattus norvegicus
# ASSAY EXPLANATION: DrugMatrix - Regimen: Daily Repeat
# Format: toxicity, organism-based, Sprague-Dawley
# Design: regimen Daily Repeat, gender Male, age 6-8 weeks
# REPORTED CONDITIONS: in vivo, iv, 0 mg/kg, 72 h, tissue Plasma, dose level Control, time 3 day, vehicle 100 % SALINE
Starred links: 1 amine or outer side, 2 acyl side, 3 side chain; linkers in the order of their positions; H or OH if unused. Positions of bridges follow the written chain, without caps; N, C: chain ends. Non-standard residues stand in square brackets, D forms with d. Residues, ends and D or L forms follow the SMILES beside them. Chains are numbered I, II in the order given. Actinocin(9to1) = Cc1c2oc3c(C)ccc(C(=O)[*:1])c3nc-2c(C(=O)[*:2])c(N)c1=O; NMeV = CN[C@H](C(=O)O)C(C)C; Sar = CNCC(=O)O
Hi! Could you send only the number? It should be in MEQ/L, unit omitted.

Field: example entries. Status: answers known.
1. COc1cc2c3cc1Oc1cc(ccc1O)C[C@@H]1c4c(cc(OC)c(O)c4Oc4ccc(cc4)C[C@@H]3N(C)CC2)CC[N+]1(C)C.[Cl-]; 5.93
2. Cc1c2oc3c(C)ccc(C(=O)N[C@@H]4C(=O)N[C@H](C(C)C)C(=O)N5CCC[C@H]5C(=O)N(C)CC(=O)N(C)[C@@H](C(C)C)C(=O)O[C@@H]4C)c3nc-2c(C(=O)N[C@@H]2C(=O)N[C@H](C(C)C)C(=O)N3CCC[C@H]3C(=O)N(C)CC(=O)N(C)[C@@H](C(C)C)C(=O)O[C@@H]2C)c(N)c1=O [DACTINOMYCIN] (I: T[dV]P[Sar][NMeV] / II: T[dV]P[Sar][NMeV]; ester I:1-I:C, II:1-II:C; linker I:N-II:N via Actinocin(9to1)); 5.85
3. Cc1ccc(N(CC2=NCCN2)c2cccc(O)c2)cc1 [PHENTOLAMINE]; 6.83

Which POTASSIUM value is on record for CC[C@]1(O)C[C@H]2CN(CCc3c([nH]c4ccccc34)[C@@](C(=O)OC)(c3cc4c(cc3OC)N(C=O)[C@H]3[C@@](O)(C(=O)OC)[C@H](OC(C)=O)[C@]5(CC)C=CCN6CC[C@]43[C@@H]65)C2)C1 [VINCRISTINE] ?
5.47

----------
# Species: Rattus norvegicus
# ASSAY EXPLANATION: DrugMatrix - Regimen: Daily Repeat
# Type: toxicity, organism-based, Sprague-Dawley
# Design: regimen Daily Repeat, gender Male, age 6-8 weeks
# REPORTED CONDITIONS: in vivo, po, 0 mg/kg, 120 h, tissue Blood, route oral GAVAGE, dose level Control, time 5 day, vehicle .5 % CMC
METRIC: NUCLEATED RED BLOOD CELLS

Field: example entries. Status: answers known.
1. ClC(Cl)Br; 0 /100WBC
2. ClC(Br)Br; 0 /100WBC
3. CCCN1C[C@H](CSC)C[C@@H]2c3cccc4[nH]cc(c34)C[C@H]21 [PERGOLIDE]; 0.17 /100WBC
4. Cc1ccc(/N=C/N(C)/C=N/c2ccc(C)cc2C)c(C)c1; 0.33 /100WBC

Which NUCLEATED RED BLOOD CELLS value is on record for CN1CCN(CCCN2c3ccccc3Sc3ccc(Cl)cc32)CC1 ?
0 /100WBC

----------
# Species on record: Rattus norvegicus
# ASSAY EXPLANATION: DrugMatrix - Regimen: Daily Repeat
# Assay type: toxicity, organism-based, Sprague-Dawley
# Set-up: regimen Daily Repeat, gender Male, age 6-8 weeks
# REPORTED CONDITIONS: in vivo, po, 0 mg/kg, 120 h, tissue Plasma, route oral GAVAGE, dose level Control, time 5 day, […]
METRIC: ALANINE AMINOTRANSFERASE (u/L)
Hi! Could you send only the number? It should be in u/L, unit omitted.

Field: example entries. Status: answers known.
1) Cc1ccc(-c2cc(C(F)(F)F)nn2-c2ccc(S(N)(=O)=O)cc2)cc1 [CELECOXIB]; 52.5
2) Cc1oncc1C(=O)Nc1ccc(C(F)(F)F)cc1 [LEFLUNOMIDE]; 75.67
3) Cc1noc(NS(=O)(=O)c2ccc(N)cc2)c1C [SULFISOXAZOLE]; 58.83
4) OC(Cn1cncn1)(Cn1cncn1)c1ccc(F)cc1F [FLUCONAZOLE]; 52.5
5) CCC(C)n1ncn(-c2ccc(N3CCN(c4ccc(OCC5COC(Cn6cncn6)(c6ccc(Cl)cc6Cl)O5)cc4)CC3)cc2)c1=O (centres undefined) [ITRACONAZOLE]; 52.5

Which ALANINE AMINOTRANSFERASE value is on record for O=C(O)CCCc1ccc(N(CCCl)CCCl)cc1 [CHLORAMBUCIL] ?
52.5

And the next one, CN(C)c1nc(N(C)C)nc(N(C)C)n1 [ALTRETAMINE] ?
66.83

And the next one, CC(C)(Oc1ccc(Cl)cc1)C(=O)O [CLOFIBRIC ACID] ?
57

And the next one, CC(C)C(=O)Nc1ccc([N+](=O)[O-])c(C(F)(F)F)c1 [FLUTAMIDE] ?
68.83

And the next one, C[C@@H]1CN(c2c(F)c(N)c3c(=O)c(C(=O)O)cn(C4CC4)c3c2F)C[C@H](C)N1 [SPARFLOXACIN] ?
66.83

And the next one, O=NN(CCCl)C(=O)NC1CCCCC1 [LOMUSTINE] ?
66.83

And the next one, CCOC(=O)C1=C(COCCN)NC(C)=C(C(=O)OC)C1c1ccccc1Cl (centres undefined) [AMLODIPINE] ?
66.83

And the next one, C[C@H]1O[C@@H](O[C@H]2[C@@H](O)C[C@H](O[C@H]3[C@@H](O)C[C@H](O[C@H]4CC[C@@]5(C)[C@H](CC[C@@H]6[C@@H]5C[C@@H](O)[C@]5(C)[C@@H](C7=CC(=O)OC7)CC[C@]65O)C4)O[C@@H]3C)O[C@@H]2C)C[C@H](O)[C@@H]1O [DIGOXIN] ?
62.33

And the next one, O=c1oc2ccccc2c(O)c1Cc1c(O)c2ccccc2oc1=O [DICUMAROL] ?
64.5

----------
compounds and their reported HEMOGLOBIN
# Organism: Rattus norvegicus
# ASSAY EXPLANATION: DrugMatrix - Regimen: Daily Repeat
# Assay type: toxicity, organism-based, Sprague-Dawley
# Set-up: regimen Daily Repeat, gender Male, age 6-8 weeks
# REPORTED CONDITIONS: in vivo, po, 0 mg/kg, 120 h, tissue Blood, route oral GAVAGE, dose level Control, time 5 day, vehicle 100 % WATER
Hi! Could you send only the number? It should be in G/DL, unit omitted.

Field: example entries. Status: answers known.
1) Cc1onc(-c2ccccc2Cl)c1C(=O)N[C@@H]1C(=O)N2[C@@H]1SC(C)(C)[C@@H]2C(=O)O; 14.4
2) Clc1cccc(Cl)c1N=C1NCCN1; 14.12
3) CNNCc1ccc(C(=O)NC(C)C)cc1; 13.72
4) CN(C)CCCN1c2ccccc2Sc2ccc(Cl)cc21; 13.17

Which HEMOGLOBIN value is on record for c1ccc([C@H]2CN3CCSC3=N2)cc1 ?
14.07

And the next one, Cn1cc[nH]c1=S ?
13.47

And the next one, NCCCCCC(=O)O ?
14.4
